B1: TPR 5TU (parent)
chain: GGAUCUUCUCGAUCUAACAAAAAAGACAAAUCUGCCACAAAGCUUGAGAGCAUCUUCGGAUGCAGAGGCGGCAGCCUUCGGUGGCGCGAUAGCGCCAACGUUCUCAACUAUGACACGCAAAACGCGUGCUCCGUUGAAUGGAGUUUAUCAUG

- Variants of: B1
- measurementProtocol: polymerase ribozyme fitness, log enrichment relative to wild type (log ratio); higher = more active; in vitro selection for triplet polymerase activity
Fewer inactive variants are shown than the library holds.
Quick rule for you: polymerase ribozyme fitness (log ratio) at -3 or higher means true (1), lower means false (0).

Asked: Test whether the variant U53G A73C G83U G117U records polymerase ribozyme fitness (log ratio) of -3 or higher.
Given back: false (0)

Asked: Record U53G A137G ; criterion: polymerase ribozyme fitness (log ratio) no lower than -3. Met?
Given back: true (1)

Asked: State whether the measured polymerase ribozyme fitness (log ratio) reaches -3, counting equality as reaching it, for "C14A"
Given back: true (1)
